# ASSAYED_TARGET: proteasome (beta 5, chymotrypsin-like activity) in HEK293T cell extract (Homo sapiens, UniProt P20618+P28074)
# Construct: endogenous in cells
# ASSAY: Proteasome activity in HEK293T cell extracts with beta 5-selective substrate Suc-Leu-Leu-Val-Tyr-AMC
# MEASUREMENT_SETUP: Suc-Leu-Leu-Val-Tyr-AMC, 30 min pre-incubation, 1 hour, read-out: IC50, inhibition of proteasome activity
QUANTITY: IC50

stdin: Given CC(C)[C@H](O)[C@@]12NC(=O)[C@H](C)[C@@H]1OC2=O [clasto-Lactacystin β-lactone, reference compound] , respond with its IC50.
stdout: ~10 µM
